Catalogue of compounds with associated melting point
property: melting point

{"item-smiles": "O=c1cc(-c2cn(-c3ccccc3)c3ccccc3c2=O)oc2ccccc12", "result-value": "327 to 328 °C"}
{"item-smiles": "COc1cc(O)c2c(=O)cc(-c3cn(-c4ccccc4)c4ccccc4c3=O)oc2c1", "result-value": "295 to 296 °C"}
{"item-smiles": "O=c1cc(-c2cn(-c3ccccc3)c3ccccc3c2=O)oc2cc(O)ccc12", "result-value": "295 to 300 °C"}
{"item-smiles": "O=c1c(-c2cc(=O)c3c(O)cccc3o2)cn(-c2ccccc2)c2ccccc12", "result-value": "> 300 °C"}

All figures here come from patent US7339061B2.
